B1: glmS ribozyme (parent)
chain: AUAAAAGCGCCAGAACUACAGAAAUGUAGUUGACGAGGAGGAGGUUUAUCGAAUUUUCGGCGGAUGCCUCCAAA

variants of: B1; assay: kcat; higher = faster cleavage; RNA array; settings: with glucosamine-6-phosphate
Fewer inactive variants are shown than the library holds.
Entries and their measured kcat follow.

Variant Spec: G29C C71U
Units: s⁻¹
Qualifying Sign: =
kcat: 0.00146
--
Variant Spec: G32A G41U
Units: s⁻¹
Qualifying Sign: =
kcat: 0.000608
--
Variant Spec: G40A A64G
Units: s⁻¹
Qualifying Sign: =
kcat: 0.00353
--
Variant Spec: A6C U47G
Units: s⁻¹
Qualifying Sign: =
kcat: 1.58e-05
--
Variant Spec: C16U C68G
Units: s⁻¹
Qualifying Sign: =
kcat: 8.6e-05
--
Variant Spec: G43A U55A
Units: s⁻¹
Qualifying Sign: =
kcat: 0.00026
--
Variant Spec: A14U U46C
Units: s⁻¹
Qualifying Sign: =
kcat: 0.00036
--
Variant Spec: U54C C58U
Units: s⁻¹
Qualifying Sign: =
kcat: 4.86e-05
--
Variant Spec: A15C A53G
Units: s⁻¹
Qualifying Sign: =
kcat: 0.0101
--
Variant Spec: G13U U30C
Units: s⁻¹
Qualifying Sign: =
kcat: 0.000509
--
Variant Spec: A53G G66U
Units: s⁻¹
Qualifying Sign: =
kcat: 0.00201
--
Variant Spec: C11U A53C
Units: s⁻¹
Qualifying Sign: =
kcat: 0.000605
--
Variant Spec: C61A U65A
Units: s⁻¹
Qualifying Sign: <
kcat: 1e-05
--
Variant Spec: A48G C61U
Units: s⁻¹
Qualifying Sign: =
kcat: 3e-05
--
Variant Spec: U47C A64U
Units: s⁻¹
Qualifying Sign: =
kcat: 0.000108
--
Variant Spec: C16A U30G
Units: s⁻¹
Qualifying Sign: =
kcat: 0.000341
--
Variant Spec: G13A C71U
Units: s⁻¹
Qualifying Sign: =
kcat: 0.00103
--
Variant Spec: U31C C61A
Units: s⁻¹
Qualifying Sign: =
kcat: 3.08e-05
--
Variant Spec: G29A G60C
Units: s⁻¹
Qualifying Sign: <
kcat: 1e-05
--
Variant Spec: A12C A64G
Units: s⁻¹
Qualifying Sign: =
kcat: 0.000378
--
Variant Spec: U49A A53G
Units: s⁻¹
Qualifying Sign: =
kcat: 2.25e-05
--
Variant Spec: C67U C70A
Units: s⁻¹
Qualifying Sign: =
kcat: 1.69e-05
--
Variant Spec: G38A C68A
Units: s⁻¹
Qualifying Sign: <
kcat: 1e-05
--
Variant Spec: G7U A48U C50G U54G
Units: s⁻¹
Qualifying Sign: =
kcat: 3.22e-05
--
Variant Spec: G51A G62A
Units: s⁻¹
Qualifying Sign: <
kcat: 1e-05
--
Variant Spec: C16A C68A
Units: s⁻¹
Qualifying Sign: =
kcat: 1.91e-05
--
Variant Spec: C11G C50G
Units: s⁻¹
Qualifying Sign: =
kcat: 0.000265
--
Variant Spec: A12G G41U
Units: s⁻¹
Qualifying Sign: =
kcat: 0.000763
--
Variant Spec: U30A G41U
Units: s⁻¹
Qualifying Sign: =
kcat: 0.000138
--
Variant Spec: A12G U57C
Units: s⁻¹
Qualifying Sign: =
kcat: 1.17e-05
--
Variant Spec: G38C C68G
Units: s⁻¹
Qualifying Sign: =
kcat: 1.31e-05
--
Variant Spec: C10U A53U G59C C68G
Units: s⁻¹
Qualifying Sign: <
kcat: 1e-05
--
Variant Spec: A12U U47C
Units: s⁻¹
Qualifying Sign: =
kcat: 0.0109
--
Variant Spec: A39U A48G
Units: s⁻¹
Qualifying Sign: =
kcat: 0.000105
--
Variant Spec: C50A U65G
Units: s⁻¹
Qualifying Sign: =
kcat: 2.65e-05
--
Variant Spec: C16A G38U
Units: s⁻¹
Qualifying Sign: <
kcat: 1e-05
--
Variant Spec: U56C C67A
Units: s⁻¹
Qualifying Sign: =
kcat: 4.27e-05
--
Variant Spec: C34G U47G C58A C68A
Units: s⁻¹
Qualifying Sign: =
kcat: 5.47e-05
--
Variant Spec: C10U U30G
Units: s⁻¹
Qualifying Sign: <
kcat: 1e-05
--
Variant Spec: G51U U69A
Units: s⁻¹
Qualifying Sign: =
kcat: 5.12e-05
--
Variant Spec: U31C C67G
Units: s⁻¹
Qualifying Sign: =
kcat: 4.05e-05
--
Variant Spec: A12C U30A
Units: s⁻¹
Qualifying Sign: =
kcat: 0.00751
--
Variant Spec: G40U U49G
Units: s⁻¹
Qualifying Sign: =
kcat: 8.53e-05
--
Variant Spec: G35U G59U G66U
Units: s⁻¹
Qualifying Sign: <
kcat: 1e-05
--
Variant Spec: U30C U69C
Units: s⁻¹
Qualifying Sign: =
kcat: 0.00014
--
Variant Spec: A15C U55G
Units: s⁻¹
Qualifying Sign: =
kcat: 0.00196
--
Variant Spec: G29C G66C
Units: s⁻¹
Qualifying Sign: =
kcat: 2.22e-05
--
Variant Spec: C50G G66A
Units: s⁻¹
Qualifying Sign: =
kcat: 4.08e-05
--
Variant Spec: G32A U54A
Units: s⁻¹
Qualifying Sign: =
kcat: 0.00386
--
Variant Spec: C11U A39U
Units: s⁻¹
Qualifying Sign: =
kcat: 0.00145
--
Variant Spec: A6U G32U C50G
Units: s⁻¹
Qualifying Sign: =
kcat: 6.32e-05
--
Variant Spec: G40U A64G
Units: s⁻¹
Qualifying Sign: =
kcat: 0.000292
--
Variant Spec: G29U C50A
Units: s⁻¹
Qualifying Sign: <
kcat: 1e-05
--
Variant Spec: C11U U55A U56G
Units: s⁻¹
Qualifying Sign: =
kcat: 0.000956
--
Variant Spec: A14G G32U
Units: s⁻¹
Qualifying Sign: =
kcat: 0.00512
--
Variant Spec: A33U G59U
Units: s⁻¹
Qualifying Sign: <
kcat: 1e-05
--
Variant Spec: C16U C50A
Units: s⁻¹
Qualifying Sign: =
kcat: 2.89e-05
--
Variant Spec: A6U U49A
Units: s⁻¹
Qualifying Sign: <
kcat: 1e-05
--
Variant Spec: G37U U57G
Units: s⁻¹
Qualifying Sign: <
kcat: 1e-05
--
Variant Spec: C11A U54A
Units: s⁻¹
Qualifying Sign: =
kcat: 0.000163
--
Variant Spec: C16G G51C
Units: s⁻¹
Qualifying Sign: <
kcat: 1e-05
--
Variant Spec: G29U C58A
Units: s⁻¹
Qualifying Sign: =
kcat: 0.000289
--
Variant Spec: G59U C71G
Units: s⁻¹
Qualifying Sign: =
kcat: 1.13e-05
--
Variant Spec: A53G U57G
Units: s⁻¹
Qualifying Sign: =
kcat: 5.45e-05
--
Variant Spec: G37C A53C
Units: s⁻¹
Qualifying Sign: =
kcat: 1.74e-05
--
Variant Spec: U57C C67G
Units: s⁻¹
Qualifying Sign: =
kcat: 2.59e-05
--
Variant Spec: U56G U69G
Units: s⁻¹
Qualifying Sign: =
kcat: 4.9e-05
--
Variant Spec: A14G U31A U57A C71G
Units: s⁻¹
Qualifying Sign: =
kcat: 2.93e-05
--
Variant Spec: U54A U56A
Units: s⁻¹
Qualifying Sign: =
kcat: 0.0109
--
Variant Spec: C50U A53U
Units: s⁻¹
Qualifying Sign: =
kcat: 5.88e-05
--
Variant Spec: A39C A48U
Units: s⁻¹
Qualifying Sign: =
kcat: 0.000107
--
Variant Spec: A53C C70U
Units: s⁻¹
Qualifying Sign: =
kcat: 0.00487
--
Variant Spec: A48U C71G
Units: s⁻¹
Qualifying Sign: =
kcat: 4.92e-05
--
Variant Spec: U46G U65G
Units: s⁻¹
Qualifying Sign: =
kcat: 0.00226
--
Variant Spec: A12C G40C
Units: s⁻¹
Qualifying Sign: =
kcat: 0.000942
--
Variant Spec: A15U G32C
Units: s⁻¹
Qualifying Sign: =
kcat: 0.000139
--
Variant Spec: A14G G60A C70G
Units: s⁻¹
Qualifying Sign: =
kcat: 1.55e-05
--
Variant Spec: U57C C70G
Units: s⁻¹
Qualifying Sign: =
kcat: 1.91e-05
--
Variant Spec: U47A C50A
Units: s⁻¹
Qualifying Sign: =
kcat: 4.12e-05
--
Variant Spec: A14G U57G
Units: s⁻¹
Qualifying Sign: =
kcat: 0.000171
--
Variant Spec: G13U U69G
Units: s⁻¹
Qualifying Sign: =
kcat: 2.13e-05
--
Variant Spec: G40A U54C
Units: s⁻¹
Qualifying Sign: =
kcat: 0.00522
--
Variant Spec: A53G U55G
Units: s⁻¹
Qualifying Sign: =
kcat: 0.0437
--
Variant Spec: G60U G66C
Units: s⁻¹
Qualifying Sign: <
kcat: 1e-05
--
Variant Spec: U47C U65A
Units: s⁻¹
Qualifying Sign: =
kcat: 0.00113
--
Variant Spec: C16G U30A
Units: s⁻¹
Qualifying Sign: =
kcat: 0.000474
--
Variant Spec: C50U C61G C70U
Units: s⁻¹
Qualifying Sign: =
kcat: 1.56e-05
--
Variant Spec: A12G G66U C67U
Units: s⁻¹
Qualifying Sign: =
kcat: 8.1e-05
--
Variant Spec: G29U U56G
Units: s⁻¹
Qualifying Sign: =
kcat: 0.00364
--
Variant Spec: G29C C61A
Units: s⁻¹
Qualifying Sign: =
kcat: 1.76e-05
--
Variant Spec: G13C C70U
Units: s⁻¹
Qualifying Sign: =
kcat: 0.000154
